Please provide measured IC50 at 72 h for the entries that follow.
- Method Summary: Cytotoxicity against human Jurkat cells assessed as reduction in cell viability incubated for 72 hrs by CCK-8 assay

# compound "COc1ccc(-c2ncc(C(=O)NCCCCCCC(=O)NO)[nH]2)c(OC)c1" ; its IC50 at 72 h = 230 nM

# compound "COc1ccc(-c2ncc(/C=C/C(=O)NO)s2)cc1" ; its IC50 at 72 h = 740 nM

# compound "COc1cc(-c2ncc(/C=C/C(=O)Nc3ccccc3N)s2)cc(OC)c1OC" ; its IC50 at 72 h = 580 nM

# compound "COc1cc(-c2ncc(/C=C/C(=O)NO)s2)cc(OC)c1OC" ; its IC50 at 72 h = 360 nM

# compound "CC(C)(C)OC(=O)Nc1ccc(-c2ncc(C(=O)NCCCCCCC(=O)NO)s2)cc1" ; its IC50 at 72 h = 1340 nM

# compound "COc1ccc(-c2ncc(/C=C/C(=O)NO)s2)c(OC)c1OC" ; its IC50 at 72 h = 590 nM

# compound "COc1cccc(-c2ncc(/C=C/C(=O)Nc3ccccc3N)s2)c1" ; its IC50 at 72 h = 560 nM

# compound "COc1ccc(-c2ncc(C(=O)NCCCCCCC(=O)NO)s2)c(OC)c1" ; its IC50 at 72 h = 160 nM

# compound "CC(C)(C)OC(=O)Nc1ccc(-c2cc(C(=O)NCCCCCCC(=O)NO)no2)cc1" ; its IC50 at 72 h = 610 nM

# compound "COc1cccc(-c2ncc(C(=O)NCCCCCCC(=O)NO)s2)c1" ; its IC50 at 72 h = 330 nM

# compound "COc1ccc(-c2ncc(/C=C/C(=O)Nc3ccccc3N)s2)cc1OC" ; its IC50 at 72 h = 340 nM

# compound "COc1ccccc1-c1ncc(C(=O)NCCCCCCC(=O)NO)s1" ; its IC50 at 72 h = 350 nM

# compound "COc1ccc(-c2ncc(C(=O)NCCCCCC(=O)NO)s2)c(OC)c1" ; its IC50 at 72 h = 1720 nM

====

- Method Summary: Half life in Sprague-Dawley rat at 10 mg/kg, po measured upto 48 hrs by LC-MS/MS analysis
- Type: ADME, organism-based
- Condition Info: in vivo
Quantity Measured: half-life (h)
Your answer is read as h, so omit the unit and give the number.

# molecule "COc1ccc(-c2ncc(C(=O)NCCCCCCC(=O)NO)s2)c(OC)c1" ; its half-life = 5.8

====

Please provide measured log10(IC50) for the entries that follow.
- Target Desc: Histone deacetylase
- Method Summary: Inhibition of HDAC in human HeLa nuclear extracts using fluorometric substrate incubated for 30 mins by fluorescence plate reader analysis
- Format: cell-based
Would you kindly interpret these values as log10 of IC50 expressed in nM?

# compound "O=C(/C=C/c1cnc(-c2ccc(N3CCOCC3)cc2)s1)NO" ; its log10(IC50) = 2.74

# compound "COc1cc(-c2ncc(C(=O)NCCCCCCC(=O)NO)s2)cc(OC)c1OC" ; its log10(IC50) = 2.83

# compound "COc1ccc(-c2ncc(/C=C/C(=O)Nc3ccccc3N)s2)cc1" ; its log10(IC50) = 2.85

# compound "COc1ccc(-c2ncc(C(=O)NCCCCC(=O)NO)s2)c(OC)c1" ; its log10(IC50) = 2.84

# compound "COc1ccc(-c2ncc(C(=O)NCCCCCCC(=O)NO)s2)cc1" ; its log10(IC50) = 2.85

# compound "COc1ccc(-c2ncc(/C=C/C(=O)NO)s2)c(OC)c1OC" ; its log10(IC50) = 2.04

# compound "COc1cc(-c2ncc(/C=C/C(=O)NO)s2)cc(OC)c1OC" ; its log10(IC50) = 2.00

# compound "O=C(CCCCCCNC(=O)c1cnc(-c2ccc(OC(F)(F)F)cc2)s1)NO" ; its log10(IC50) = 2.85

# compound "COc1cccc(-c2ncc(/C=C/C(=O)Nc3ccccc3N)s2)c1" ; its log10(IC50) = 2.76

# compound "O=C(/C=C/c1cnc(-c2ccc3c(c2)OCCO3)s1)NO" ; its log10(IC50) = 2.83

# compound "Nc1ccccc1NC(=O)/C=C/c1cnc(-c2ccc3cc[nH]c3c2)s1" ; its log10(IC50) = 2.80

# compound "COc1ccc(-c2ncc(C(=O)NCCCCCCC(=O)NO)s2)c(OC)c1" ; its log10(IC50) = 1.60

# compound "Cc1cccc(-c2ncc(/C=C/C(=O)Nc3ccccc3N)s2)c1" ; its log10(IC50) = 2.91

# compound "O=C(/C=C/c1cnc(-c2ccc(F)cc2F)s1)NO" ; its log10(IC50) = 2.97

# compound "COc1cc(OC)cc(-c2ncc(C(=O)NCCCCCCC(=O)NO)s2)c1" ; its log10(IC50) = 2.90

# compound "COc1cc(OC)cc(-c2ncc(/C=C/C(=O)NO)s2)c1" ; its log10(IC50) = 2.86

# compound "COc1cc(-c2ncc(/C=C/C(=O)Nc3ccccc3N)s2)cc(OC)c1OC" ; its log10(IC50) = 1.90

# compound "O=C(CCCCCCNC(=O)c1cnc(-c2ccc(Cl)cc2)s1)NO" ; its log10(IC50) = 2.98

# compound "COc1cccc(-c2ncc(/C=C/C(=O)NO)s2)c1" ; its log10(IC50) = 2.82

# compound "O=C(CCCCCCNC(=O)c1cnc(-c2ccc(F)cc2)s1)NO" ; its log10(IC50) = 3.01

# compound "COc1ccc(-c2ncc(/C=C/C(=O)Nc3ccccc3N)s2)c(OC)c1OC" ; its log10(IC50) = 2.80

These entries and their values trace back to ChEMBL document CHEMBL5042524.
